System name: T1, ZFP SBS#1224 (synthetic)
T1 chain: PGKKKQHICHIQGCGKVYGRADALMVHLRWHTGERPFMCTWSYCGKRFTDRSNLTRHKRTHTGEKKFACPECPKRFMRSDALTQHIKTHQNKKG
Measurement description: EMSA
Experimental setup: tags: MBP fusion
Parameter measured: Kd (nM)
Response body: numeric value in nM, unit text excluded.

Problem: Look up and state reported Kd for ATGGACTTG (dsDNA) DNA 1: ATGGACTTG DNA 2: CAAGTCCAT
Solution: 12
